Tested on: NCI-H460
Test: NCI tumour cell line growth inhibition, 48 h
The source made the active and inactive calls. No stated cut-off is given here; in the data, active = GI50 up to about 1.1 µM and inactive = higher.
Pick one and only one: YES = active, NO = inactive

{"columns": ["compound", "assignedLabel"],
 "data": [
  ["N#C[C-](C#N)[n+]1ccc(Cl)cc1", "NO"],
  ["COc1cc(C(=O)C2CC3(CCC2(O)c2cc(OC)c(OC)c(OC)c2)CC(=O)Nc2ccccc2C3=O)cc(OC)c1OC (stereo not drawn)", "NO"],
  ["C=CCN1C(=O)CC1N(CC=C)S(=O)(=O)c1ccc(C)cc1 (stereo not drawn)", "NO"],
  ["C=CCCC1(O)C(O)C(CO)O[C@H](O[C@@]2(CO)OC(CO)C(O)C2O)C1O (stereo partly drawn)", "NO"],
  ["Oc1ccc(/C=N/c2ccccc2O)cc1", "NO"]
]}

For NC1C(O)C(O)C(CO)OC1n1cc(F)c(=O)[nH]c1=O (stereo not drawn) , what call appears in the results of this test?
NO

Would you kindly repeat that for C/C=C(/C)C(=O)OC1CC(C)[C@H]2CC(=O)C(C)=C2CC1C(C)(C)OC(C)=O (stereo partly drawn) ?
NO

Would you kindly repeat that for Nc1nc(CCc2n[nH]c(N)n2)n[nH]1 ?
NO

---

Test system: UACC-257
Test: NCI tumour cell line growth inhibition, 48 h
The source made the active and inactive calls. Cut-off read from the data, not from the text of the source: active = GI50 up to about 1.1 µM and inactive = higher.
Catalogue of GI50 values

Past entries and their recorded results:
{"columns": ["molecule", "recordedMeasurement"],
 "data": [
  ["CC1=C(C2=C(C)C(=O)c3c(c(C=O)c(O)c(O)c3C(C)C)C2=O)C(=O)c2c(C=O)c(O)c(O)c(C(C)C)c2C1=O", "3.99 µM (inactive)"],
  ["COC(=O)[C@H](Cc1ccccc1)NP(=O)(O)OCC1C=CC(n2cc(C)c(=O)[nH]c2=O)O1 (stereo not given in full)", "> 100 µM (inactive)"],
  ["CN(C)CC/C(=N\\Nc1ccc(Cl)c(Cl)c1)c1ccccc1", "3 µM (inactive)"]
]}

Find GI50 (UACC-257) for the entry O=C(CCOS(=O)(=O)CF)N1CCN(C(=O)CCOS(=O)(=O)CF)CC1
> 100 µM (inactive)

Would you kindly repeat that for COC(=O)N/N=C/C(=C/Nc1ccccc1)[N+](=O)[O-] ?
> 100 µM (inactive)

---

Test system: U-251
Assay: NCI tumour cell line growth inhibition, 48 h
The source made the active and inactive calls. Rule as the data show it: active = GI50 up to about 1.1 µM and inactive = higher.
measurementLabel: GI50

Past entries and their recorded results:
{"columns": ["compound", "targetSystem", "GI50"],
 "data": [
  ["Cc1cc2nc3c(C#N)c4c(c(Nc5ccc(Cl)cc5)n3c2cc1C)CCC4", "U-251", "18.9 µM (inactive)"],
  ["Cc1ccc(S(=O)(=O)NC(=O)NC(CCC(N)=O)C(=O)O)cc1 (stereo unspecified)", "U-251", "> 100 µM (inactive)"],
  ["C/C(=N\\Nc1nc2ccccc2s1)c1cc2ccccc2cn1", "U-251", "4.68 µM (inactive)"],
  ["C/C(=N\\n1c(Cc2ccccc2)n[nH]c1=O)c1ccccc1", "U-251", "> 100 µM (inactive)"],
  ["OCCN1CCN(CCO)Cc2ccccc2OCCOc2ccccc2C1", "U-251", "> 100 µM (inactive)"]
]}

We now examine a further compound.
Looking for the measured GI50 of C=CCCC1(O)C(O)C(CO)O[C@H](O[C@@]2(CO)OC(CO)C(O)C2O)C1O (stereo partly specified) , can you help?
> 100 µM (inactive)

Numbers sourced from ChEMBL document CHEMBL1201862.
